For each of the compounds below, state its survival.
Experiment: hESC survival regulators, cell-based (AID 493140);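 further: cells exposed to compounds for four days before counting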
Conditions: human embryonic stem cell survival screen; stronger effect = higher value
Give bare numbers.

Dear reader, for each entry below, please note its survival.
1. Cn1cnc2c(NCc3ccccc3)nc(NCCO)nc21
2. CN[C@@H]1[C@H](O[C@H]2[C@H](O[C@@H]3[C@@H](O)[C@H](O)[C@@H](N=C(N)N)[C@H](O)[C@H]3N=C(N)N)O[C@@H](C)[C@]2(O)C=O)O[C@@H](CO)[C@H](O)[C@H]1O
3. CCCCCCCC/C=C\CCCCCCCC(=O)NCCc1ccc(O)c(O)c1
4. COc1cc(/C=C/C(=O)N2CCC=CC2=O)cc(OC)c1OC
5. Cc1cc2nc3c(=O)[nH]c(=O)nc-3n(CC(O)C(O)C(O)CO)c2cc1C (stereo not drawn)
6. CC(C)(C)n1nc(-c2ccc(Cl)cc2)c2c(N)ncnc21
7. O=C(c1ccc(OCCN2CCCCC2)cc1)c1c(-c2ccc(O)cc2)sc2cc(O)ccc12

Output:
1. 92.8
2. 20.6
3. 98
4. 0.417
5. 1.58
6. 53.1
7. 4.58

Input: Record request: survival value, item `O=C(O)Cc1cc(I)c(Oc2ccc(O)c(I)c2)c(I)c1`
Output: 18.8

###

Assay: inhibitors of polyQ protein aggregation (AID 1604)
Details: polyglutamine-induced protein aggregation inhibition assay; stronger effect = higher value; concentration not given here
Kindly supply the reported inhibition of aggregation values for the records listed here.

compound	inhibition of aggregation
C=C(C)[C@H]1CC=C(C(=O)O)CC1	-3.17%
CC(=O)OCC(=O)[C@@]1(O)CCC2C3CCC4=CC(=O)CC[C@]4(C)C3C(=O)C[C@@]21C (some centres undefined)	69.7%
CCC(=O)O[C@]1(C(=O)CCl)[C@@H](C)CC2C3CCC4=CC(=O)C=C[C@]4(C)[C@@]3(F)[C@@H](O)C[C@@]21C (some centres undefined)	51%

Take each entry in turn and give its inhibition of aggregation.
1. C=C[C@@]1(C)CC(=O)[C@@]2(O)[C@](C)(O1)[C@@H](OC(C)=O)[C@@H](O)C1C(C)(C)CC[C@H](O)[C@@]12C (some centres undefined)
2. Nc1ccn(C2O[C@H](CO)[C@@H](O)[C@@H]2O)c(=O)n1 (some centres undefined)
3. C[C@@H]1CC2C3C[C@H](F)C4=CC(=O)C=C[C@]4(C)[C@@]3(F)[C@@H](O)C[C@]2(C)[C@@]1(O)C(=O)COC(=O)C(C)(C)C (some centres undefined)
4. CC(C)Oc1ccc2c(=O)cc(-c3ccccc3)oc2c1
5. C=C[C@H]1CN2CC[C@H]1C[C@@H]2[C@H](O)c1ccnc2ccc(OC)cc12
6. OCC(S)CS (centres undefined)

Output:
15.4%
77.5%
39.8%
12.7%
9.09%
68.7%

###

Assay: inhibition of 3D7 malaria parasite growth – strain 3D7 (AID 2306);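 further: 0% = DMSO wells and 100% = chloroquine plus artemisinin control wells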
Settings: P. falciparum 3D7 erythrocytic growth, LDH absorbance, 72 h; at 2 µM; stronger effect = higher value
Provide the reported growth inhibition of each item.
Give bare numbers, in %.

Completed entries (count: 5):
molecule	measurement_label	unit_abbreviation	numeric_value
CS(=O)(=O)Nc1cccc(-c2cnc3[nH]cc(-c4cccc(CN)c4)c3c2)c1	growth inhibition	%	96
COc1ccc(CN2CCC(CNCCc3c(Cl)cccc3Cl)CC2)cc1	growth inhibition	%	98
Cc1cc2nc(-c3ccc(C(=O)NC4CCN(Cc5ccccc5)CC4)s3)[nH]c2cc1C	growth inhibition	%	99
C=CCOc1cc(Cc2cnc(N)nc2N)cc(OC)c1OC	growth inhibition	%	81
N#Cc1cccc(NC(=O)Nc2ccc3c(c2)CN(Cc2c[nH]c4ncccc24)C3)c1	growth inhibition	%	99

Look up growth inhibition for the entries below, preserving their order.
1. O=C(O)CCSc1ncnc2nc[nH]c12
2. CN(C)CCCOC(=O)c1cc2cc(-c3ccccc3)ccc2n1S(=O)(=O)Cc1ccccc1
3. Nc1nc(N)c2c(Sc3ccccc3)cccc2n1
4. CN(C)CCNCc1cccc(-c2ccc3c(Nc4ccc(Oc5ccccn5)cc4)ccnc3c2)c1
5. O=C(Nc1ccc(N2CCC(Nc3ccccn3)CC2)cc1)c1cnc(Cl)c(Cl)c1
6. COc1cc2nc(N3CCC(CCCC4CCNCC4)CC3)nc(NCc3ccccn3)c2cc1OC
7. N=c1n(CCN2CCCCC2)c2ccccc2n1CC(O)c1cccc(Br)c1 (stereo not drawn)

Output:
103
101
97
99
83
101
86

###

Provide the reported normalised cell number of each item.
Assay: differential killing of epithelial or mesenchymal cells, primary screen, imaging, PC-3E GFP, TEM4-18 mCherry, co-culture (AID 1345086);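 further: cells exposed to compound for 72 h before imaging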
Settings: imaging cell counts, measured here: mesenchymal TEM4-18 mCherry cell survival, at 1 µM
Answers are plain numbers.

Check out these entries, answers already filled in.
compound	normalised cell number
CNc1ccccc1C(=O)N1CCc2c([nH]c3ccccc23)C1=O	0.96
C=C1C/C=C(\C)CC[C@@H]2[C@@H]1CC2(C)C	1.07
COc1c(F)c(F)cc(C(N)=O)c1F	0.99
C#CCCCCCCCCCCCc1ccco1	0.98
Cc1c(O)c(=O)n(-c2ccccc2)n1C	0.85

Next compound, please.
Input: Value lookup for normalised cell number; key = COC(=O)C[C@@H]1C2(C)C(=O)[C@@H](CC3=C4CC(O)O[C@@H](c5ccoc5)[C@]4(C)CCC32)[C@H](O)C1(C)C (stereo partly specified)
Output: 1.14

###

Experiment: enhancers of glutamate uptake in motor neurons, MN-1 cell line (AID 1612);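 further: 0% = mean of DMSO vehicle wells on each plate; positive means more glutamate uptake than control and negative means less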
Conditions: MN-1 motor neuron cells, stronger effect = higher value
measurement_label: glutamate uptake change (%)
Numbers only, in %.

Provide the reported glutamate uptake change of each entry below, same order.
1. C=C[C@H]1CN2CC[C@H]1C[C@@H]2[C@H](O)c1ccnc2ccc(OC)cc12
2. C[C@@H]1CC2C3C[C@H](F)C4=CC(=O)C=C[C@]4(C)[C@@]3(F)[C@@H](O)C[C@]2(C)[C@@]1(O)C(=O)CO (stereo partly drawn)
3. C[C@H](CCC(=O)O)[C@H]1CCC2C3C(=O)CC4CC(=O)CC[C@]4(C)C3CC(=O)[C@@]21C (stereo partly drawn)
4. COC(=O)C1[C@H]2C[C@H]3c4[nH]c5ccccc5c4CCN3C[C@@H]2CC[C@@H]1O (stereo partly drawn)
5. CCCC1O[C@@H]2CC3C4CCC5=CC(=O)C=CC5(C)C4[C@@H](O)CC3(C)[C@]2(C(=O)CO)O1 (stereo partly drawn)
6. CC(C)(S)C(N)C(=O)O (stereo not drawn)
7. NC[C@@H]1O[C@H](O[C@@H]2[C@@H](CO)OC(O[C@@H]3[C@@H](O)[C@H](N)C[C@H](N)[C@H]3OC3O[C@H](CN)[C@@H](O)[C@H](O)[C@H]3N)[C@@H]2O)[C@H](N)[C@@H](O)[C@@H]1O (stereo partly drawn)

Output:
[13.1, 16.9, 7.41, -7.18, -4.39, -17.3, -6.09]

Input: Look up glutamate uptake change: `CN1CCN(CCC=C2c3ccccc3Sc3ccc(S(=O)(=O)N(C)C)cc32)CC1`
Output: -21.1

###

Assay: UWB1.289_BRCA1 ovarian cancer growth, cell-based, BGB or cisplatin combinations (AID 1671459)
Settings: UWB1.289 BRCA1 ovarian carcinoma, drug combinations, BGB combination, concentration series, at 5 µM, stronger effect = higher value
// label = 1 if inhibition is not less than 20%, otherwise -1

The examples below pair each entry with its known result.
compound	answer_label
CO[C@H]1/C=C/O[C@@]2(C)Oc3c(C)c(O)c4c(O)c(c(C=NN5CCN(C)CC5)c(O)c4c3C2=O)NC(=O)/C(C)=C\C=C\[C@H](C)[C@H](O)[C@@H](C)[C@@H](O)[C@@H](C)[C@H](OC(C)=O)[C@@H]1C	1
CC(C)N=c1cc2n(-c3ccc(Cl)cc3)c3ccccc3nc-2cc1Nc1ccc(Cl)cc1	-1
O=C(Nc1ccccc1)c1ccccc1O	1
CCc1c2c(nc3ccc(O)cc13)-c1cc3c(c(=O)n1C2)COC(=O)[C@]3(O)CC	1
NC(=O)c1ncn(C2OC(CO)C(O)C2O)n1 (stereo unspecified)	-1

For the next question, use this compound.
Input: Hi, just wondering whether `O=c1[nH]c(-c2ccc(C(F)(F)F)cc2)nc2c1CSCC2` shows inhibition of 20% or higher.
Output: -1

###

Test: sensitizers of A549 cells to miR-34 induction, primary screen, imaging, A549 dox-inducible miR-34, nuclei and caspase counts (AID 1347080)
Settings: A549 miR-34 inducible, Hoechst nuclei count, 48 h; stronger effect = lower value; cell number ratio, induced over uninduced
The source made the active and inactive calls.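 The calls were made as follows: active = compounds whose cell count with miR-34 switched on is under 0.7 times the count with it off; inactive = the rest.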 Bridge positions count the residues as written; N and C are the ends. Square brackets hold non-standard residues; d marks the D form. Peptide text beside a SMILES is read from it. * marks the point of attachment. ξ: configuration not given here. ξDab(CH2SO3H) = NC(CCNCS(=O)(=O)O)C(=O)O; Heptanoyl(6-Me) = CC(C)CCCCC(=O)*; Dab = NCC[CH](N)C(=O)O
measurement_label: fold change

See these solved cases before continuing.
compound	measurement_label	result
COc1cc([C@@H]2c3cc4c(cc3C(O[C@@H]3O[C@@H]5CO[C@@H](c6cccs6)OC5[C@H](O)[C@H]3O)C3COC(=O)[C@@H]32)OCO4)cc(OC)c1O (stereo not given in full)	fold change	0.795 (inactive)
CN(C)CC[C@H](c1ccc(Cl)cc1)c1ccccn1	fold change	0.84 (inactive)
O=c1[nH]c(=O)n(C2C[C@@H](O)[C@@H](CO)O2)cc1F (stereo not given in full)	fold change	1.13 (inactive)
C[C@@H](c1ncncc1F)[C@](O)(Cn1cncn1)c1ccc(F)cc1F	fold change	0.997 (inactive)
O=C(O)CCCCC1SCC2NC(=O)NC21 (stereo not given)	fold change	0.892 (inactive)

The following compounds each have a reported value; give each one's fold change.
1. O=C(O)C1CSCN1 (stereo not given)
2. CN(CCOc1ccc(-c2ccc3c(c2)OCO3)cc1C(C)(C)C)CC(=O)O
3. CCC(C)C1NC(=O)C(CCNCS(=O)(=O)O)NC(=O)C(NC(=O)C(CCNCS(=O)(=O)O)NC(=O)C(NC(=O)C(CCNCS(=O)(=O)O)NC(=O)CCCCC(C)C)C(C)O)CCNC(=O)C(C(C)O)NC(=O)C(CCNCS(=O)(=O)O)NC(=O)C(CCNCS(=O)(=O)O)NC(=O)C(C(C)CC)NC1=O (stereo not given) ({Heptanoyl(6-Me)}-[ξDab(CH2SO3H)]T[ξDab(CH2SO3H)][Dab][ξDab(CH2SO3H)]II[ξDab(CH2SO3H)][ξDab(CH2SO3H)]T; lactam 4-C; configuration not given here)

Output:
1. 0.957 (inactive)
2. 0.865 (inactive)
3. 0.942 (inactive)

// batch mode: one fold change value per listed entry
1. O=C1c2ccccc2C(=O)C1c1ccc(Cl)cc1
2. NC[C@@H]1O[C@H](O[C@@H]2[C@@H](CO)OC(O[C@@H]3[C@@H](O)[C@H](N)C[C@H](N)[C@H]3OC3O[C@H](CN)[C@@H](O)[C@H](O)[C@H]3N)[C@@H]2O)[C@H](N)[C@@H](O)[C@@H]1O (stereo not given in full)
3. Cc1cc(-c2ccc(N=Nc3ccc4c(S(=O)(=O)O)cc(S(=O)(=O)O)c(N)c4c3O)c(C)c2)ccc1N=Nc1ccc2c(S(=O)(=O)O)cc(S(=O)(=O)O)c(N)c2c1O
4. O=C(O)C[C@H](O)C[C@H](O)/C=C/c1c(C2CC2)nc2ccccc2c1-c1ccc(F)cc1
5. CCOC(=O)OC(C)OC(=O)C1N2C(=O)C(NC(=O)[C@H](N)c3ccccc3)C2SC1(C)C (stereo not given in full)

Output:
1. 0.921 (inactive)
2. 0.934 (inactive)
3. 0.905 (inactive)
4. 1.25 (inactive)
5. 0.906 (inactive)

Items follow; give fold change for each.
1. CCC(C)(C)N=C(NC#N)Nc1cccnc1
2. CCC(=O)OCC(=O)C1(OC(=O)CC)C(C)CC2C3CCC4=CC(=O)C=CC4(C)C3(Cl)C(O)CC21C (stereo not given)
3. O=c1[nH]cnc2c1ncn2C1O[C@H](CO)[C@@H](O)[C@H]1O (stereo not given in full)
4. CC(COc1ccccc1)NC(C)[C@H](O)c1ccc(O)cc1 (stereo not given in full)

Output:
0.909 (inactive)
0.749 (inactive)
0.943 (inactive)
0.796 (inactive)

For every item below, please supply its fold change.
1. O=c1[nH]c(=O)n([C@H]2C[C@H](O)C(CO)O2)cc1I (stereo not given in full)
2. O=C(O)c1ccccc1-c1c2cc(I)c(=O)c(I)c-2oc2c(I)c(O)c(I)cc12
3. CCCCC/C=C/CCC(=O)N[C@H]1[C@H](Oc2c3cc4cc2Oc2ccc(cc2Cl)[C@@H](O[C@@H]2O[C@H](CO)[C@@H](O)[C@H](O)[C@H]2NC(C)=O)[C@@H]2NC(=O)[C@H](NC(=O)[C@@H]4NC(=O)[C@H]4NC(=O)C(Cc5ccc(c(Cl)c5)O3)NC(=O)[C@H](N)c3ccc(O)c(c3)Oc3cc(O)cc4c3)c3ccc(O)c(c3)-c3c(OC4O[C@H](CO)[C@@H](O)[C@H](O)[C@@H]4O)cc(O)cc3[C@@H](C(=O)O)NC2=O)O[C@H](CO)[C@@H](O)[C@@H]1O (stereo not given in full)
4. CCCCCCCCCCCCCCCC(=O)OC[C@H](NC(=O)C(Cl)Cl)[C@H](O)c1ccc([N+](=O)[O-])cc1
5. CC[C@H]1CN2CCc3cc(OC)c(OC)cc3C2C[C@@H]1CC1NCCc2cc(OC)c(OC)cc21 (stereo not given in full)
6. CC(C)[C@H](CO)Nc1nc(Nc2cccc(Cl)c2)c2ncn(C(C)C)c2n1

Output:
1.01 (inactive)
0.927 (inactive)
0.918 (inactive)
0.906 (inactive)
1.07 (inactive)
1.01 (inactive)

Provide each entry's fold change from the list below.
1. C[C@H](NC(=O)c1sccc1OCc1ccc(Cl)cc1)c1ccccc1
2. CNC[C@@H](O)c1ccc(O)c(O)c1
3. NC(=O)c1cc[n+](CC2=C(C(=O)O)N3C(=O)C(NC(=O)C(c4ccccc4)S(=O)(=O)[O-])C3SC2)cc1 (stereo not given)
4. COc1cc(-c2ccc(N=Nc3ccc4c(S(=O)(=O)O)cc(S(=O)(=O)O)c(N)c4c3O)c(OC)c2)ccc1N=Nc1ccc2c(S(=O)(=O)O)cc(S(=O)(=O)O)c(N)c2c1O
5. C#C[C@]1(OC(C)=O)CCC2C3CCC4=C/C(=N/O)CCC4C3CC[C@@]21CC (stereo not given in full)
6. CN1C2CC(OC(=O)[C@H](CO)c3ccccc3)C[C@H]1[C@H]1OC21 (stereo not given in full)
7. NC(N)=NCC1COC2(CCCCC2)O1 (stereo not given)

Output:
1.09 (inactive)
0.901 (inactive)
0.877 (inactive)
0.857 (inactive)
0.914 (inactive)
0.977 (inactive)
0.907 (inactive)
